Where these numbers come from: patent US20260042834A1

Kd values for the binders below.
# Target Or System: T1, biotinylated CRH (human and mouse, not fully specified; biotinylated, position not stated)
# T1 construct: also called Biotin-CRH; biotin-labeled CRH
# T1 peptide: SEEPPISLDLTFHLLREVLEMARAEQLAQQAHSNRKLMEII
# Run Description: Octet BLI, biotinylated CRH on SA sensor
The reply should contain only the number, in nM.

PR005658 (antibody, human IgG1, kappa, V domains shown, PTM-removal variant of PR004290) VH: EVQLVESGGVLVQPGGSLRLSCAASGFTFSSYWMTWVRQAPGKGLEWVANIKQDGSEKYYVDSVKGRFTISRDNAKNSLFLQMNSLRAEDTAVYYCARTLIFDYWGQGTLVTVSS VL: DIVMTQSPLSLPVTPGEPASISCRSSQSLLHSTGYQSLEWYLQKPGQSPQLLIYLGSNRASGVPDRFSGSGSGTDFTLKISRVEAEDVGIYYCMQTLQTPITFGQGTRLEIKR    0.179

Now, please, on to the next binder.
Give the reported value of Kd for this record: PR006746 (antibody, human IgG1, kappa, V domains shown, PTM-removal variant of PR006669) VH: EVQLVESGGGLVQPGGSLRLSCAASGFTFSDNWMSWVRQAPGKGLEWVANIKQDSSENYYVDSVKGRFTISRDNAKNSLYLQMNSLRAEDTAVYYCSRGLALWGWGQGTLVTVSS VL: DIVMTHSPLSLPVTPGDPASISCRSSQSLLHSTGYNYLDWYLQKPGQSPQLLIYLGSNRASGVPDRFSGSGSGTDFTLKFIRVEAEDVGVYYCMQALQTPYTFGQGTKLEIKR 0.0751
